Data provenance: paper PMC10397247

Biological target: T1, P7-AA
T1 chain: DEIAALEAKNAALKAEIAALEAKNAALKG
Assay: two-hybrid library CCmax;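 also: natural log of median RNA to DNA barcode read ratio; higher means stronger binding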
Details: mean of both orientations
readout: interaction score

Field: example entries. Status: answers known.
| binder | interaction score |
| --- | --- |
| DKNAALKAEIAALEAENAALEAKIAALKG [4H3606-AA] | 1.24 |
| DELAAIEAEIAALEAKKAALKAKNAALKG [AP3-AA] | -1.23 |
| DEIAALEAEIAALEAKNAALKAKNAALKG [P3-AA] | -1.27 |
| DKNAALKAKIAALKAKIAALKAENAALEG [P12-AA] | -1.45 |
| DELAAEEAKNAALKAKLAAAKAEIAALEG [AP7-AA] | -2.09 |

A. DKIAALKAKIAALKAENAALEAENAALEG [P4-AA]
B. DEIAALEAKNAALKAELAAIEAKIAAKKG [AP5-AA]
Query: From the items above, decide which of A and B has the lower interaction score reading. Answer format: the label of the selected item.
Response: A

P. DKLAAIKAKLAANKAKKAALKAKAAALKG [AP2-AA]
Q. DKLAAAKAEIAALEAELAANEAKKAALKG [AP8-AA]
Query: Thinking about recorded interaction score values, which is higher, P or Q ? # respond with the chosen item's label
Response: Q
(Q: -1.21, P: -1.75)

a. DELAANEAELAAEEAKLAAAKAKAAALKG [AP4-AA]
b. DKNAALKAENAALEAKIAALKAKIAALKG [P10-AA]
c. DENAALEAEIAALEAEIAALEAKNAALKG [P11-AA]
d. DEEAALEAKAAALKAELAANEAKLAAAKG [AP6-AA]
Query: Rank the 4 binders: largest interaction score first, smallest last. Write out the labels following the order that was asked for.
Response: b, d, c, a
(b: -0.0691, d: -0.655, c: -1.07, a: -1.82)
